IC50 values for Cytochrome P450 3A4 (Homo sapiens, UniProt P08684) compiled from several publications are listed below.

# count of solved cases: 5
CN(C[C@H]1Cc2c(cccc2N[C@H]2CC[C@H](N)CC2)CN1)[C@H]1CCCc2cccnc21    > 20 µM
COc1ccc(-c2cnc(N3CCN(C(=O)N[C@H]4C5CC6CC4C[C@](O)(C6)C5)c4ccccc43)nc2)cc1    > 10 µM
COc1cc2c(cc1OC)CN(CCc1ccc(-n3nnc(-c4cc(OC)c(OC)cc4NC(=O)c4ccc(-c5cccnc5)cc4)n3)cc1)CC2    > 9 µM
Cc1cc(-c2ccc3c(c2)-c2nnc(Oc4ccccc4OC(F)(F)F)n2CCO3)ccn1    > 50 µM
COc1cccc(C(CNC(=O)c2c(C)c(-c3ccccc3)nc3ccc(Br)cc23)CC(=O)O)c1 (racemic)    > 20 µM

Qu. Can you look up the measured IC50 of O=C(O)c1ccc2cc(N3CCC4(C=C(c5c(-c6c(Cl)cc(F)cc6Cl)noc5C5CC5)C4)CC3)ccc2n1 for me?
Ans. 3.1 µM

Qu. Can you look up the measured IC50 of CC(=O)Cc1ccc(-n2nc(C(F)(F)F)c3c2CCCC3)cc1 for me?
Ans. ≤ 1 µM

Qu. Can you look up the measured IC50 of Cc1nccc2c3cnc(Nc4ccc(N5CCNCC5)cn4)nc3n(C3CCCC3)c12 for me?
Ans. > 10 µM
